The values you see were collected from ChEMBL document CHEMBL3400028.

# Tested on: A549
# test_protocol: Antiproliferative activity against human A549 cells by sulforhodamine B assay
# Format: functional
GI50 overview

QUERY: Requested read-out: GI50. Entry: C=C1[C@H]2C[C@@H]3C4N5C[C@]6(C)CCC[C@@]47[C@@H]6[C@@]5(O)C[C@]3([C@@H]1O)[C@H]7[C@H]2OC(c1ccccc1)(c1ccccc1)c1ccccc1
RESULT: 6.4 µM

QUERY: Requested read-out: GI50. Entry: C=C1[C@H]2C[C@@H]3C4N5C[C@]6(C)CCC[C@@]47[C@@H]6[C@@H]5C[C@]3([C@@H]1OC(=O)c1ccc(OC)cc1)[C@H]7[C@H]2OC(=O)c1ccc(OC)cc1
RESULT: 6.7 µM

QUERY: Requested read-out: GI50. Entry: C=C1[C@H]2C[C@H]3C4N5C[C@]6(C)CCC[C@]47[C@H]([C@H]2OC(=O)/C=C/c2ccccc2)C3(C[C@]5(O)[C@H]67)[C@@H]1O
RESULT: 8.4 µM

QUERY: Requested read-out: GI50. Entry: C=C1[C@H]2C[C@@H]3C4N5C[C@]6(C)CCC[C@@]47[C@@H]6[C@@]5(O)C[C@]3([C@@H]1OC(=O)c1ccc(OC)c(OC)c1)[C@H]7[C@H]2O
RESULT: > 20 µM

QUERY: Requested read-out: GI50. Entry: C=C1[C@H]2C[C@@]3(C4C[C@@H]5C6(C)CCC7O[C@H]6N(CC)C4C75[C@@H]3C[C@@H]2OC(C)=O)[C@@H]1OC(C)=O
RESULT: > 20 µM

QUERY: Requested read-out: GI50. Entry: C=C1[C@@H](O)[C@]23C[C@@H]1[C@@H](OC(=O)c1ccccc1)C[C@H]2[C@@]12C4C3C[C@@H]1[C@@](C)(CC[C@H]2O)CN4CC
RESULT: > 20 µM

QUERY: Requested read-out: GI50. Entry: C=C1[C@H]2C[C@@H]3C4N5C[C@]6(C)CCC[C@@]47[C@@H]6[C@@]5(OC(=O)c4ccc([N+](=O)[O-])cc4)C[C@]3([C@@H]1OC(=O)c1ccc([N+](=O)[O-])cc1)[C@H]7[C@H]2O
RESULT: > 20 µM

QUERY: Requested read-out: GI50. Entry: C=C1[C@H]2C[C@H]3C4N5C[C@]6(C)CCC[C@]47[C@H]([C@H]2O)C3(CC5[C@H]67)[C@@H]1O [KOBUSINE]
RESULT: > 20 µM

QUERY: Requested read-out: GI50. Entry: CCN1C[C@@]2(COC)[C@H]3[C@@H](OC)[C@H]4C1[C@]3([C@@H](OC)C[C@H]2OC(C)=O)[C@@H]1C[C@@]2(O)[C@H](OC(=O)c3ccc(OC)cc3)[C@@H]1[C@]4(OC(C)=O)[C@@H](OC(C)=O)[C@@H]2OC
RESULT: > 20 µM

QUERY: Requested read-out: GI50. Entry: C=C1[C@@H](OC(C)=O)[C@]23C[C@@H]1[C@@H](OC(C)=O)C[C@H]2[C@@]12C4C3C[C@@H]1[C@@](C)(CC[C@H]2OC(C)=O)CN4CC
RESULT: > 20 µM
